- TESTED_TARGET: BTK-NanoLuc fusion (Homo sapiens)
- Construct: host or cells: HEK 293T/17
- Sequence (Q06187 whole entry, the tested form may be a part): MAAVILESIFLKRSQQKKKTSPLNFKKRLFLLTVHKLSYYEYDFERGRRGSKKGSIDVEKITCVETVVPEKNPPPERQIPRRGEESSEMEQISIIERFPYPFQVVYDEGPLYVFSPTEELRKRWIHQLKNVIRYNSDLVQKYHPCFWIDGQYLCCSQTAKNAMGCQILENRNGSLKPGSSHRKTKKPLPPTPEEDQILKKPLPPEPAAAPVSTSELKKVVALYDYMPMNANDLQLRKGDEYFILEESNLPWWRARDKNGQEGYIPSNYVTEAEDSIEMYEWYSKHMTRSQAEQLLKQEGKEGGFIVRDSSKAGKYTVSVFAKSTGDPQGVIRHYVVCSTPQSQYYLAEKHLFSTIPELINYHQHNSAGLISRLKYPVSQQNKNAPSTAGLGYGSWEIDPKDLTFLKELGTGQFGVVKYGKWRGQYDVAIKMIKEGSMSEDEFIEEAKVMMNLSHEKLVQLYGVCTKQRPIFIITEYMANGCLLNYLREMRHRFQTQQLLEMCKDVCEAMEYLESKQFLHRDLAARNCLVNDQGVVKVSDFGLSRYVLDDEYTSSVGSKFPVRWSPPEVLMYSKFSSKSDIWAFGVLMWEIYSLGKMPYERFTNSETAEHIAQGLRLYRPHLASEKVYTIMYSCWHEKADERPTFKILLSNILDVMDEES
- TEST_NAME: NanoBRET BTK in-cell target engagement assay
- Format: cell-based
- TEST_CONDITIONS: from K′P,D values, BTK (Table 1)
- Description: The target engagement assay for BTK or CRBN was from Promega (BTK kit, Cat. No. N2500; CRBN kit, Cat. No. CS1810C136) and was performed according to the manufacture’s instruction with some modifications. […] BRET signals were collected using a BioTek SYNERGY H1 microplate reader equipped with a 450/80-nm BP filter for donor emission and a 610-nm LP filter for acceptor emission. […] The IC50 of the compound against its BTK or CRBN tracer was calculated using GraphPad Prism software.
Entries and their intracellular accumulation of RC-1 relative to the compound values follow.
TEST_READOUT: intracellular accumulation of RC-1 relative to the compound (folds)

>  <COMPOUND>
CN(CCCNC(=O)CNc1cccc2c1C(=O)N(C1CCC(=O)NC1=O)C2=O)CCCC(=O)N1CCCC(n2nc(-c3ccc(Oc4ccccc4)cc3)c3c(N)ncnc32)C1 (stereo not shown)

>  <TEST_VALUE>
40

$$$$
>  <COMPOUND>
CN(CCCNC(=O)CNc1cccc2c1C(=O)N(C1CCC(=O)NC1=O)C2=O)C(C)(C)CC(C#N)C(=O)N1CCC[C@@H](n2nc(-c3ccc(Oc4ccccc4)cc3)c3c(N)ncnc32)C1 (stereo partly shown)

>  <TEST_VALUE>
5

$$$$
>  <COMPOUND>
CN(CC=CC(=O)N1CCCC(n2nc(-c3ccc(Oc4ccccc4)cc3)c3c(N)ncnc32)C1)CCCNC(=O)CNc1cccc2c1C(=O)N(C1CCC(=O)NC1=O)C2=O (stereo not shown)

>  <TEST_VALUE>
6

$$$$
>  <COMPOUND>
CN(CCCNC(=O)CNc1cccc2c1C(=O)N(C1CCC(=O)NC1=O)C2=O)C(C)(C)/C=C/C(=O)N1CCC[C@@H](n2nc(-c3ccc(Oc4ccccc4)cc3)c3c(N)ncnc32)C1 (stereo partly shown)

>  <TEST_VALUE>
5

$$$$
